assay: NCI Yeast Anticancer Drug Screen. Data for the sgs1 mgt1 strain (AID 161);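 further: 0% = growth of cultures given vehicle only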; conditions: S. cerevisiae sgs1 mgt1 strain, at 50.0 µM (retest, dose inferred, filed as 5.0), active compounds read high
Compounds without any hit were thinned out: in the full panel of roughly 79,000, 15% have a hit. Calls of active or inactive are those of the source. No stated cut-off is given here; in the data, active means growth inhibition above about 70%; inactive means the rest.
value-type: growth inhibition

In plain terms, Cc1nc2ccc(NCCN(C)C)c3c(=O)c4ccccc4n1c23 has a documented growth inhibition of 15% (inactive)

In plain terms, CCCCCC(=O)C(C)(c1nc2n(c1O)/C(=N/C(=O)Nc1ccc(Cl)cc1)N=N2)c1nc2n(c1O)/C(=N/C(=O)Nc1ccc(Cl)cc1)N=N2 has a documented growth inhibition of 64% (inactive)

In plain terms, c1ccc(N/N=C2\CC(c3ccccc3)Oc3ccccc32)cc1 (stereo not drawn) has a documented growth inhibition of 26% (inactive)

----------
Give measured growth inhibition for each item. Keep answers brief.
Test: NCI Yeast Anticancer Drug Screen. Data for the rad18 strain (AID 177)
Details: S. cerevisiae rad18 mutant growth inhibition; at 33.0 µM; active compounds read high
Method: Growth inhibition of yeast strains with defined genetic alterations is measured as a screen for potential anti-cancer activity. Selected strains with alterations in DNA damage repair or cell cycle control were exposed to compounds and growth inhibition was measured relative to vehicle treated controls. The strain used in this assay is rad18
The panel holds about 79,000 compounds, 15% with a hit somewhere; the sample as a whole holds those more often.
Provide only the numeric value, understood in %.

In plain terms, NNc1nnc(-c2ccccc2)nc1Cc1ccccc1 has a documented growth inhibition of 96

In plain terms, CCCCCCCCCCCCOC1C(COCCN2CCCC2)OC2OC(C)(C)OC21 (configuration not stated) has a documented growth inhibition of 98

In plain terms, Cc1nc2ccc(Br)cc2c(=O)n1-c1ccc(NC2OCC(O)C(O)C2O)cc1 (configuration not stated) has a documented growth inhibition of 55

In plain terms, COc1ccc2c(C)cc(N/N=C/c3sccc3C)nc2c1 has a documented growth inhibition of 85

In plain terms, COc1ccc(/C=C2\S/C(=N/Nc3nc(-c4ccccc4)cs3)NC2=O)cc1OC has a documented growth inhibition of 96

In plain terms, O=C1C=CC(=O)N1c1ccc(Br)cc1Cl has a documented growth inhibition of 93

In plain terms, Cc1ccc(Cl)c2c(=O)c3ccccc3[nH]c12 has a documented growth inhibition of 7

In plain terms, COC(=O)C1(N2CCOCC2)CCC([C@@H](c2ccccc2)C(C)[N+](=O)[O-])C1 (some centres not stated) has a documented growth inhibition of 14

In plain terms, CCSc1c2ccccc2c(-c2nc(F)nc(F)n2)n1CCc1ccccc1 has a documented growth inhibition of 75

In plain terms, CCc1nc2ccc(N=Nc3c(O)ccc4ccccc34)cc2[nH]1 has a documented growth inhibition of 21

In plain terms, O=c1oc(C(C(F)(F)F)C(F)(F)F)nc2ccccc12 has a documented growth inhibition of 19

In plain terms, O=C(Cc1ccccc1F)NC1=C(Cl)C(=O)c2ccccc2C1=O has a documented growth inhibition of 34

----------
experiment: NCI Yeast Anticancer Drug Screen. Data for the bub3 strain (AID 167); conditions: S. cerevisiae bub3 mutant strain, at 50.0 µM
The panel holds about 79,000 compounds, 15% with a hit somewhere; the sample as a whole holds those more often. The source made the active and inactive calls. No stated cut-off is given here; in the data, active means growth inhibition above about 70%; inactive means the rest.
Outcome field: choose from true = active, false = inactive

Per the records of this test, what outcome belongs to Cc1c(N=Nc2ccc(Cl)cc2)c(C)n(C2OC(CO)C(O)C(O)C2O)c(=S)c1C#N (stereo not given) ?
true

Per the records of this test, what outcome belongs to O=C1C(Br)=CC(Br)(Br)C=C1Br ?
true

Per the records of this test, what outcome belongs to COC1=C(N=[N+]=[N-])C(=O)c2ncccc2C1=O ?
true

Per the records of this test, what outcome belongs to CN1CCN(c2ccc3nc(-c4ccc5nc(-c6ccc(O)cc6)[nH]c5c4)[nH]c3c2)CC1 ?
true

Per the records of this test, what outcome belongs to Cn1c(COc2ccc(/C=N/NC(=O)CCC(=O)N/N=C/c3ccc(OCc4c[n+]5ccccc5n4C)cc3)cc2)c[n+]2ccccc12 ?
false

----------
Assay: NCI Yeast Anticancer Drug Screen. Data for the mec2-1 strain (AID 157)
Conditions: S. cerevisiae mec2-1 strain, at 50.0 µM
Method: Growth inhibition of yeast strains with defined genetic alterations is measured as a screen for potential anti-cancer activity. Selected strains with alterations in DNA damage repair or cell cycle control were exposed to compounds and growth inhibition was measured relative to vehicle treated controls. The strain used in this assay is mec2-1
Compounds without any hit were thinned out: in the full panel of roughly 79,000, 15% have a hit. Active and inactive are the calls of the source. Cut-off read from the data, not from the text of the source: active = growth inhibition above about 70%; inactive = the rest.
Outcome field: choose from active, inactive

Per the records of this test, what outcome belongs to CCOC(=O)/C(O)=C(/C=N/C(=S)Nc1c(CC)cccc1CC)C(=O)OCC ?
inactive

Per the records of this test, what outcome belongs to CCOC(=O)C(NC(=O)c1ccccc1)[CH](c1ccccc1)[Sn]([c]1ccccc1)([c]1ccccc1)[c]1ccccc1 (stereo not drawn) ?
active

Per the records of this test, what outcome belongs to O=C(c1c(F)c(F)c(F)c(F)c1F)c1c(F)c(F)c(F)c(F)c1F ?
active

Per the records of this test, what outcome belongs to C=Cc1c(C)c(O)cc2c1-c1ccc(O)c(C)c1CC2 ?
inactive

Per the records of this test, what outcome belongs to COc1ccc(C(=O)NCCN(C)C)c2nc3ccccc3cc12 ?
active

Per the records of this test, what outcome belongs to CCOC(=O)C1=C(C)NC(C)=C(C(=O)OCC)C1c1cccc([N+](=O)[O-])c1 ?
inactive

Per the records of this test, what outcome belongs to O=S(=O)(O)CC[S][Sn]([S]CCS(=O)(=O)O)([c]1ccccc1)[c]1ccccc1 ?
active

Per the records of this test, what outcome belongs to CCOc1ccccc1N1C(=O)CC(Sc2ccccc2N)C1=O (stereo not drawn) ?
inactive

----------
Assay: NCI Yeast Anticancer Drug Screen. Data for the rad50EPP+ strain (AID 151);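 further: 0% = growth of vehicle-treated control cultures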
Settings: S. cerevisiae rad50 mutant strain, at 100.0 µM
Description: Growth inhibition of yeast strains with defined genetic alterations is measured as a screen for potential anti-cancer activity. Selected strains with alterations in DNA damage repair or cell cycle control were exposed to compounds and growth inhibition was measured relative to vehicle treated controls. The strain used in this assay is rad50EPP+
This is part of a sample that, as a whole, favours compounds with a hit. Of some 79,000 tested, about 15% had one in any assay. Calls of active or inactive are those of the source. Rule as the data show it: active = growth inhibition above about 70%; inactive = the rest.
Outcome field: choose from active, inactive

Per the records of this test, what outcome belongs to CNC(=O)OCc1c(COC(=O)NC)c(C)n(-c2ccc(Cl)c(Cl)c2)c1C ?
inactive

Per the records of this test, what outcome belongs to CCN(CC)c1cccc(Nc2nc3ccccc3s2)c1 ?
inactive

Per the records of this test, what outcome belongs to O=C1c2ccc(O)cc2C(=O)c2c(O)ccc(O)c21 ?
active

Per the records of this test, what outcome belongs to O=C1C=CC(=O)N1c1ccc(Br)cc1Cl ?
active

----------
assay: NCI Yeast Anticancer Drug Screen. Data for the rad14 strain (AID 159);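 further: 0% = growth of vehicle-treated control cultures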; conditions: S. cerevisiae rad14 strain growth inhibition; at 11.0 µM
This is part of a sample that, as a whole, favours compounds with a hit. Of some 79,000 tested, about 15% had one in any assay. Active and inactive are the calls of the source. Cut-off read from the data, not from the text of the source: active = growth inhibition above about 70%; inactive = the rest.
Outcome field: choose from y for active, n for inactive

Per the records of this test, what outcome belongs to O=C(c1c(F)c(F)c(F)c(F)c1F)c1c(F)c(F)c(F)c(F)c1F ?
y

Per the records of this test, what outcome belongs to CCC1SC(=S)N(c2ccc(Cl)cc2)C1=O (stereo unspecified) ?
n

Per the records of this test, what outcome belongs to COc1cc(C(C)C(C(=O)O)C(=O)C(=O)O)cc(OC)c1OC (stereo unspecified) ?
n

Per the records of this test, what outcome belongs to CCOC(=O)C1=C(C)NC(C)=C(C(=O)OCC)C1c1ccc(Cl)cc1 ?
y

Per the records of this test, what outcome belongs to S=c1[nH]nc(Cc2ccccc2)c(=S)[nH]1 ?
n

Per the records of this test, what outcome belongs to CN(C)c1ccc(C(c2ccc(Cl)cc2)c2ccc(N(C)C)cc2)cc1 ?
y

Per the records of this test, what outcome belongs to C#CC1=CC(=O)C(OC)=CC1=O ?
y

Per the records of this test, what outcome belongs to O=C1C(Br)=CC(Br)(Br)C=C1Br ?
n

Per the records of this test, what outcome belongs to Cc1cccc(N2CCN(C(=O)/C(=C/c3ccccc3)NC(=O)c3ccccc3)CC2)c1 ?
n

Per the records of this test, what outcome belongs to Cc1cccc[c]1[Sn]([Cl])([S]/C(C#N)=N/N=C/c1ccc(N(C)C)cc1)[c]1ccccc1C ?
n

Per the records of this test, what outcome belongs to O=[N+]([O-])C(=C(NCc1ccccc1)NCc1ccccc1)C(Cl)=C(Cl)Cl ?
n

Per the records of this test, what outcome belongs to Cc1nc2ccccc2c(=O)n1NC(=O)c1ccc(CS)cc1 ?
n

Per the records of this test, what outcome belongs to O=C(CCC(=O)c1ccc(O)cc1)Oc1ccc(O)cc1 ?
n

Per the records of this test, what outcome belongs to CC(=O)O/N=C/c1c2ccccc2cc2ccccc12 ?
n

Per the records of this test, what outcome belongs to C=Cc1c(C)c(O)cc2c1-c1ccc(O)c(C)c1CC2 ?
n

Per the records of this test, what outcome belongs to c1ccc(N/N=C2\CC(c3ccccc3)Oc3ccccc32)cc1 (stereo unspecified) ?
n

Per the records of this test, what outcome belongs to [N-]=[N+]=NC1CC(n2ccc(=O)[nH]c2=O)OC1COC(c1ccccc1)(c1ccccc1)c1ccccc1 (stereo unspecified) ?
n

Per the records of this test, what outcome belongs to Cc1c2ccncc2c(C)c2c1oc1ccccc12 ?
n

Per the records of this test, what outcome belongs to CCCC(=O)OC(OC(=O)CCC)c1ccc([N+](=O)[O-])o1 ?
n

Per the records of this test, what outcome belongs to Cc1ccc(P(c2ccc(C)cc2)c2ccc(C)cc2)cc1 ?
n

Per the records of this test, what outcome belongs to O=[N+]([O-])c1ccc2nnnn2c1 ?
n

Per the records of this test, what outcome belongs to O=C1C=CC(=O)N1c1ccc(Br)cc1Cl ?
y

Per the records of this test, what outcome belongs to CN(Cc1cccc2ccccc12)Cc1cccc2ccccc12 ?
n

Per the records of this test, what outcome belongs to CC(=O)c1ccc(NCN2C(=O)c3ccccc3C2=O)cc1 ?
n

Per the records of this test, what outcome belongs to O=C(O)CN(CCNC(=O)OCC1c2ccccc2-c2ccccc21)CCNC(=O)OCC1c2ccccc2-c2ccccc21 ?
n

Per the records of this test, what outcome belongs to CCC(C)C(=O)OCC(=O)c1ccc(-c2ccccc2)cc1 (stereo unspecified) ?
n

Per the records of this test, what outcome belongs to CCOc1ccccc1N1C(=O)CC(Sc2ccccc2N)C1=O (stereo unspecified) ?
n

Per the records of this test, what outcome belongs to CSc1ccc2c(c1)C(N1CCN(C)CC1)Cc1ccccc1S2 (stereo unspecified) ?
n

Per the records of this test, what outcome belongs to CC[C@]1(O)C[C@H]2CN(CCc3c([nH]c4ccccc34)[C@@](C(=O)OC)(c3cc4c(cc3OC)N(C)[C@H]3[C@@](O)(C(=O)OC)[C@H](OC(C)=O)[C@]5(CC)C=CCN6CC[C@]43[C@@H]65)C2)C1 ?
n

Per the records of this test, what outcome belongs to COc1cc(NCCCCCNC(C)C)c2ncccc2c1Cl ?
n

Per the records of this test, what outcome belongs to Cc1[nH]nc(C(F)(F)F)c1N=NN(C)C ?
n

Per the records of this test, what outcome belongs to CC1(C)CC(=O)C(C(CC(c2ccccc2)c2cc3c(cc2O)OCO3)C2=C(O)CC(C)(C)CC2=O)=C(O)C1 (stereo unspecified) ?
n

Per the records of this test, what outcome belongs to O=C(Nn1c(-c2ccccc2)nc2ccccc2c1=O)c1ccc(Cl)cc1 ?
n

Per the records of this test, what outcome belongs to CN(C)CCn1c2ccccc2c2nc3cc4ccccc4cc3nc21 ?
n

Per the records of this test, what outcome belongs to CCOC(=O)c1sc2[n+](c1C)C(=O)/C(=C/c1cc(OC)c(OC)c(OC)c1)S2 ?
n

Per the records of this test, what outcome belongs to Cc1nc2ccc(NCCN(C)C)c3c(=O)c4ccccc4n1c23 ?
n
